Values compiled from patent US20210196796A1.

Target: T1, orthogonal hCD122 receptor (hoRb), hCD122 with H133D and Y134F (human, UniProt P14784 27-550); note: reference of the scale not given here
T1 sequence: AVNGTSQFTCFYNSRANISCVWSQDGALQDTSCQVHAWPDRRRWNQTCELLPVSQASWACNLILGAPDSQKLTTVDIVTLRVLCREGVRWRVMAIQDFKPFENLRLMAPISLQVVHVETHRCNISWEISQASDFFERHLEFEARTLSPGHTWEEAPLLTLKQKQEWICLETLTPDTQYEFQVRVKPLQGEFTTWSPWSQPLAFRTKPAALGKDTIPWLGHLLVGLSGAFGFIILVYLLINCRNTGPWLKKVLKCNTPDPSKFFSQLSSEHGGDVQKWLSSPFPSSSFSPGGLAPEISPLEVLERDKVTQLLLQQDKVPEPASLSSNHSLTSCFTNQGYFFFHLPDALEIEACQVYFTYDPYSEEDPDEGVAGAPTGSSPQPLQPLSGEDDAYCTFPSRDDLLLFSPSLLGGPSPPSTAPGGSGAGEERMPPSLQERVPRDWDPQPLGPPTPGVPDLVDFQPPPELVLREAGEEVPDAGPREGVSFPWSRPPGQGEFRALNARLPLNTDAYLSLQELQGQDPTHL
Experiment: cell-based or functional assay
OBSERVABLE: Relative Proliferation Fold Change NKL 1:10 (fold)
One number for each entry, in fold.

• R81Y, SQVLKA (ligand) APTSSSTKKTQLQLSQLLVLLKAILNGINNYKNPKLTRMLTFKFYMPKKATELKHLQCLEEELKPLEEVLNLAQSKNFHLYPRDLISNINVIVLELKGSETTFMCEYADETATIVEFLNRWITFCQSIISTLT = 4.64

query: For the binder shown here, SQVLKW (ligand) APTSSSTKKTQLQLSQLLVLLKWILNGINNYKNPKLTRMLTFKFYMPKKATELKHLQCLEEELKPLEEVLNLAQSKNFHLRPRDLISNINVIVLELKGSETTFMCEYADETATIVEFLNRWITFCQSIISTLT , give the reported Relative Proliferation Fold Change NKL 1:10.
result: 2.52
